- System: Escherichia coli
- Assay protocol: minimum inhibitory concentration (MIC)
- Study conditions: isolate (source animal id): 136
minimum inhibitory concentration values for the compounds below.
Measured property: minimum inhibitory concentration

>>> reading("CC1(C)S[C@@H]2[C@H](NC(=O)Cc3ccccc3)C(=O)N2[C@H]1C(=O)O")
"> 8 µg/mL"
>>> reading("COc1cc(Cc2cnc(N)nc2N)cc(OC)c1OC.Cc1cc(NS(=O)(=O)c2ccc(N)cc2)no1")
"≤ 2 µg/mL"
>>> reading("CC[C@H]1OC(=O)C[C@@H](O)[C@H](C)[C@@H](O[C@@H]2O[C@H](C)[C@@H](O)[C@H](N(C)C)[C@H]2O)[C@@H](CCN2C[C@H](C)C[C@H](C)C2)C[C@@H](C)C(=O)/C=C/C(C)=C/[C@@H]1CO[C@@H]1O[C@H](C)[C@@H](O)[C@@H](OC)[C@H]1OC")
"> 16 µg/mL"
>>> reading("CCCNC[C@]1(O)[C@H](C)O[C@@H](O[C@H]2[C@H](C)[C@@H](O[C@@H]3O[C@H](C)C[C@H](N(C)C)[C@H]3O)[C@](C)(O)C[C@@H](C)CN[C@H](C)[C@@H](O)[C@](C)(O)[C@@H](CC)OC(=O)[C@@H]2C)C[C@@]1(C)OC")
"≤ 8 µg/mL"
>>> reading("CCN1CCN(c2cc3c(cc2F)c(=O)c(C(=O)O)cn3C2CC2)CC1")
"≤ 0.12 µg/mL"

---

- Tested on: Mannheimia haemolytica
- Assay protocol: minimum inhibitory concentration (MIC)
- Study conditions: isolate (source animal id): 103
Measured property: minimum inhibitory concentration (µg/mL)

>>> reading("CCCNC[C@]1(O)[C@H](C)O[C@@H](O[C@H]2[C@H](C)[C@@H](O[C@@H]3O[C@H](C)C[C@H](N(C)C)[C@H]3O)[C@](C)(O)C[C@@H](C)CN[C@H](C)[C@@H](O)[C@](C)(O)[C@@H](CC)OC(=O)[C@@H]2C)C[C@@]1(C)OC [Tulathromycin]")
16
>>> reading("CS(=O)(=O)c1ccc([C@@H](O)[C@@H](CF)NC(=O)C(Cl)Cl)cc1 [Florfenicol]")
1
>>> reading("CN(C)[C@@H]1C(O)=C(C(N)=O)C(=O)[C@@]2(O)C(O)=C3C(=O)c4c(O)cccc4[C@@](C)(O)[C@H]3C[C@@H]12 [Tetracycline]")
4

---

Documented minimum inhibitory concentration across a set of compounds
- System: Histophilus somni
- Assay protocol: minimum inhibitory concentration (MIC)
- Study conditions: isolate (source animal id): 241
Measured property: minimum inhibitory concentration (µg/mL)

>>> reading("CNC(C)C1CCC(N)C(OC2C(N)CC(N)C(OC3OCC(C)(O)C(NC)C3O)C2O)O1 (stereo not given)")
2
>>> reading("NC[C@@H]1O[C@H](O[C@H]2[C@@H](O)[C@H](O[C@@H]3[C@@H](O)[C@H](N)C[C@H](N)[C@H]3O[C@H]3O[C@H](CN)[C@@H](O)[C@H](O)[C@H]3N)O[C@@H]2CO)[C@H](N)[C@@H](O)[C@@H]1O")
32

---

- Tested on: Mannheimia haemolytica
- Assay protocol: minimum inhibitory concentration (MIC)
- Study conditions: isolate (source animal id): 162
Measured property: minimum inhibitory concentration

>>> reading("NC[C@@H]1O[C@H](O[C@H]2[C@@H](O)[C@H](O[C@@H]3[C@@H](O)[C@H](N)C[C@H](N)[C@H]3O[C@H]3O[C@H](CN)[C@@H](O)[C@H](O)[C@H]3N)O[C@@H]2CO)[C@H](N)[C@@H](O)[C@@H]1O")
"> 32 µg/mL"
>>> reading("CCCNC[C@]1(O)[C@H](C)O[C@@H](O[C@H]2[C@H](C)[C@@H](O[C@@H]3O[C@H](C)C[C@H](N(C)C)[C@H]3O)[C@](C)(O)C[C@@H](C)CN[C@H](C)[C@@H](O)[C@](C)(O)[C@@H](CC)OC(=O)[C@@H]2C)C[C@@]1(C)OC")
"64 µg/mL"
>>> reading("CO/N=C(\\C(=O)N[C@@H]1C(=O)N2C(C(=O)O)=C(CSC(=O)c3ccco3)CS[C@H]12)c1csc(N)n1")
"≤ 0.25 µg/mL"

---

Quick reference: minimum inhibitory concentration of the listed items.
- Test system: Escherichia coli
- Assay protocol: minimum inhibitory concentration (MIC)
- Study conditions: isolate (source animal id): 126
Measured property: minimum inhibitory concentration

>>> reading("CN1C[C@@H]2C[C@H]1CN2c1cc2c(cc1F)c(=O)c(C(=O)O)cn2C1CC1")
"> 1 µg/mL"
>>> reading("CC1(C)S[C@@H]2[C@H](NC(=O)Cc3ccccc3)C(=O)N2[C@H]1C(=O)O")
"> 8 µg/mL"
>>> reading("CCC[C@@H]1C[C@@H](C(=O)N[C@@H]([C@H]2O[C@H](SC)[C@H](O)[C@@H](O)[C@H]2O)[C@H](C)Cl)N(C)C1")
"> 16 µg/mL"
>>> reading("CS(=O)(=O)c1ccc([C@@H](O)[C@@H](CF)NC(=O)C(Cl)Cl)cc1")
"> 8 µg/mL"

---

- System: Histophilus somni
- Assay protocol: minimum inhibitory concentration (MIC)
- Study conditions: isolate (source animal id): 208
Measured property: minimum inhibitory concentration

>>> reading("CN1C[C@@H]2C[C@H]1CN2c1cc2c(cc1F)c(=O)c(C(=O)O)cn2C1CC1")
"≤ 0.12 µg/mL"
>>> reading("COc1cc(NS(=O)(=O)c2ccc(N)cc2)nc(OC)n1")
"> 256 µg/mL"
>>> reading("CN(C)[C@@H]1C(O)=C(C(N)=O)C(=O)[C@@]2(O)C(O)=C3C(=O)c4c(O)cccc4[C@@](C)(O)[C@H]3C[C@@H]12")
"4 µg/mL"
>>> reading("CC[C@H]1OC(=O)C[C@@H](O)[C@H](C)[C@@H](O[C@@H]2O[C@H](C)[C@@H](O[C@H]3C[C@@](C)(O)[C@@H](O)[C@H](C)O3)[C@H](N(C)C)[C@H]2O)[C@@H](CC=O)C[C@@H](C)C(=O)/C=C/C(C)=C/[C@@H]1CO[C@@H]1O[C@H](C)[C@@H](O)[C@@H](OC)[C@H]1OC")
"16 µg/mL"
>>> reading("COc1cc(Cc2cnc(N)nc2N)cc(OC)c1OC.Cc1cc(NS(=O)(=O)c2ccc(N)cc2)no1")
"≤ 2 µg/mL"
>>> reading("CS(=O)(=O)c1ccc([C@@H](O)[C@@H](CF)NC(=O)C(Cl)Cl)cc1")
"≤ 0.25 µg/mL"

---

- System: Histophilus somni
- Assay protocol: minimum inhibitory concentration (MIC)
- Study conditions: isolate (source animal id): 306
Catalogue of minimum inhibitory concentration readings, one per entry.
Measured property: minimum inhibitory concentration

>>> reading("CO/N=C(\\C(=O)N[C@@H]1C(=O)N2C(C(=O)O)=C(CSC(=O)c3ccco3)CS[C@H]12)c1csc(N)n1")
"≤ 0.25 µg/mL"
>>> reading("CS(=O)(=O)c1ccc([C@@H](O)[C@@H](CF)NC(=O)C(Cl)Cl)cc1")
"≤ 0.25 µg/mL"
>>> reading("CNC(C)C1CCC(N)C(OC2C(N)CC(N)C(OC3OCC(C)(O)C(NC)C3O)C2O)O1 (stereo unspecified)")
"8 µg/mL"
>>> reading("C=C[C@]1(C)C[C@@H](OC(=O)CSCCN(CC)CC)[C@]2(C)[C@H](C)CC[C@]3(CCC(=O)[C@H]32)[C@@H](C)[C@@H]1O")
"1 µg/mL"
>>> reading("CCCNC[C@]1(O)[C@H](C)O[C@@H](O[C@H]2[C@H](C)[C@@H](O[C@@H]3O[C@H](C)C[C@H](N(C)C)[C@H]3O)[C@](C)(O)C[C@@H](C)CN[C@H](C)[C@@H](O)[C@](C)(O)[C@@H](CC)OC(=O)[C@@H]2C)C[C@@]1(C)OC")
"≤ 8 µg/mL"
>>> reading("COc1cc(Cc2cnc(N)nc2N)cc(OC)c1OC.Cc1cc(NS(=O)(=O)c2ccc(N)cc2)no1")
"≤ 2 µg/mL"

---

Listing of entries alongside the reported minimum inhibitory concentration.
- System: Pasteurella multocida
- Assay protocol: minimum inhibitory concentration (MIC)
- Study conditions: isolate (source animal id): 213
Measured property: minimum inhibitory concentration

>>> reading("CC1(C)S[C@@H]2[C@H](NC(=O)Cc3ccccc3)C(=O)N2[C@H]1C(=O)O")
"≤ 0.12 µg/mL"
>>> reading("NC[C@@H]1O[C@H](O[C@H]2[C@@H](O)[C@H](O[C@@H]3[C@@H](O)[C@H](N)C[C@H](N)[C@H]3O[C@H]3O[C@H](CN)[C@@H](O)[C@H](O)[C@H]3N)O[C@@H]2CO)[C@H](N)[C@@H](O)[C@@H]1O")
"> 32 µg/mL"
>>> reading("CCN1CCN(c2cc3c(cc2F)c(=O)c(C(=O)O)cn3C2CC2)CC1")
"≤ 0.12 µg/mL"
>>> reading("CC[C@H]1OC(=O)C[C@@H](O)[C@H](C)[C@@H](O[C@@H]2O[C@H](C)[C@@H](O)[C@H](N(C)C)[C@H]2O)[C@@H](CCN2CCCCC2)C[C@@H](C)C(=O)/C=C/C(C)=C/[C@@H]1CN1CCCCC1")
"2 µg/mL"

Ref: the supplement of paper PMC8612539
